Target: T1, recombinant human ROR1 extracellular domain (human, UniProt Q01973 30-406)
T1 construct: biotinylated for the filter lifts; also called huROR1-ECD; human ROR1-ECD
T1 sequence (Q01973 30-406 limits assumed): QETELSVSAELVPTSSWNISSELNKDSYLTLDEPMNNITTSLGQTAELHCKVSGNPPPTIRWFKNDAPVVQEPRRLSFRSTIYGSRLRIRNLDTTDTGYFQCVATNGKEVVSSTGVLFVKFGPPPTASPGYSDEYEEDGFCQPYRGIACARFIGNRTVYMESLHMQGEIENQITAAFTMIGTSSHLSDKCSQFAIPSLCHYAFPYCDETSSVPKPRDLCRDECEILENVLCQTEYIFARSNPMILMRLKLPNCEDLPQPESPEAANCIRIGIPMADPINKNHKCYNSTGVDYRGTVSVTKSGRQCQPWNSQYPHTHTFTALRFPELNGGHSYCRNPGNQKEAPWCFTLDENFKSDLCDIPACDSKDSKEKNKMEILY
Test: capture filter lift
Reported Endpoint: binding result

Ab1 Fab variant H1 A30I (Fab, V domains shown, Fab) VH: QVQLQESGPGLVKPSQTLSLTCTVSGYIFTAYNIHWVRQAPGQGLEWMGSFDPYDGGSSYNQKFKDRLTISKDTSKNQVVLTMTNMDPVDTATYYCARGWYYFDYWGHGTLVTVSS VL: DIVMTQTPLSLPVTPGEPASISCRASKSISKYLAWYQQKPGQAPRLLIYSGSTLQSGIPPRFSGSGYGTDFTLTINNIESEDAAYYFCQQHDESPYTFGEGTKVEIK ... binds
Ab1 Fab variant L3 D110N (Fab, V domains shown, Fab) VH: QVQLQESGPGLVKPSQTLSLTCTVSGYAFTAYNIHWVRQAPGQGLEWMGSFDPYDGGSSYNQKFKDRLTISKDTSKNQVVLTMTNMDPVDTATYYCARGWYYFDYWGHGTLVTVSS VL: DIVMTQTPLSLPVTPGEPASISCRASKSISKYLAWYQQKPGQAPRLLIYSGSTLQSGIPPRFSGSGYGTDFTLTINNIESEDAAYYFCQQHNESPYTFGEGTKVEIK ... binds
